Source of measurements: paper PMC7170889

Provide the recorded Ki for the entries that follow.

Provide measured Ki on UniProt:Q05655 for CCCC=CC=CC(=O)OC1C(=CC(=O)OC)CC2CC(C(C)O)OC(=O)CC(O)CC3CC(OC(C)=O)C(C)(C)C(O)(CC4CC(OC(=O)CCc5c[nH]c6ccccc56)CC(C=CC(C)(C)C1(O)O2)O4)O3 (stereo not shown) [SUW210] please.
Sequence (Q05655 whole entry): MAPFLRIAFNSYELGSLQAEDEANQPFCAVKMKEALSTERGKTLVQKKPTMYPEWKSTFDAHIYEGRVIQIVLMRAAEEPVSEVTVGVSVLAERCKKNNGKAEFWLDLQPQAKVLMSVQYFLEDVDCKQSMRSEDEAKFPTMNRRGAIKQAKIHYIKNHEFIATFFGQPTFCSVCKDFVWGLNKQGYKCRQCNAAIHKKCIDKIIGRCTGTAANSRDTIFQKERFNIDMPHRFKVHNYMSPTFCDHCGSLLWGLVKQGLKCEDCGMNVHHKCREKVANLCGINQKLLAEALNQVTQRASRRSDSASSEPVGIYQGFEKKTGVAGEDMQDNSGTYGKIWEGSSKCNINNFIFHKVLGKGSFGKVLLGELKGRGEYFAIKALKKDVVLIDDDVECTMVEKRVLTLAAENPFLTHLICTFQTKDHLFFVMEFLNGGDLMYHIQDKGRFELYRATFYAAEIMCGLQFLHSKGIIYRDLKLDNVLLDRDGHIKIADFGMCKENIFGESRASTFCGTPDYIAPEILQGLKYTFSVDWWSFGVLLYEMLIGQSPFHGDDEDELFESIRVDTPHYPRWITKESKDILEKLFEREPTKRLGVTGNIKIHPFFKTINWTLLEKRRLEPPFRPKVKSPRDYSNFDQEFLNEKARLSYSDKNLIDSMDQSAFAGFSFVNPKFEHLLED
7.3 nM

Report Ki on UniProt:Q05655 for this entry: CCCC=CC=CC(=O)OC1C(=CC(=O)OC)CC2CC(C(C)O)OC(=O)CC(O)CC3CC(OC(C)=O)C(C)(C)C(O)(CC4CC(OC(=O)CC56CC7CC(CC(C7)C5)C6)CC(C=CC(C)(C)C1(O)O2)O4)O3 (stereo not shown) [SUW209]
3.5 nM

// fetch Ki; item: CCCC=CC=CC(=O)OC1C(=CC(=O)OC)CC2CC(C(C)O)OC(=O)CC(O)CC3CC(OC(C)=O)C(C)(C)C(O)(CC4CC(OC(=O)CN(C)C)CC(C=CC(C)(C)C1(O)O2)O4)O3 (stereo not shown) [SUW212] ; system: UniProt:Q05655
24 nM

Please indicate recorded Ki of CCCC=CC=CC(=O)OC1C(=CC(=O)OC)CC2CC(C(C)O)OC(=O)CC(O)CC3CC(OC(C)=O)C(C)(C)C(O)(CC4CC(=CC(=O)OCC)CC(C=CC(C)(C)C1(O)O2)O4)O3 (stereo not shown) [SUW218] measured with UniProt:Q05655.
6.6 nM

State the measured Ki (UniProt:Q05655) of CCCCCC#CC(=O)O[C@H]1/C(=C/C(=O)OC)C[C@H]2C[C@H]([C@@H](C)O)OC(=O)C[C@H](O)C[C@@H]3C[C@H](OC(C)=O)C(C)(C)[C@](O)(C[C@@H]4C[C@H](O)C[C@H](/C=C/C(C)(C)[C@]1(O)O2)O4)O3 [SUW204]
3.7 nM

For UniProt:Q05655, give the measured Ki of the entry CCCC=CC=CC(=O)OC1C(=CC(=O)OC)CC2CC(C(C)O)OC(=O)CC(O)CC3CC(OC(C)=O)C(C)(C)C(O)(CC4CC(=CC(=O)OCc5ccccc5)CC(C=CC(C)(C)C1(O)O2)O4)O3 (stereo not shown) [SUW219]
25 nM

Find Ki for CCCC=CC=CC(=O)OC1C(=CC(=O)OC)CC2CC(C(C)O)OC(=O)CC(O)CC3CC(OC(C)=O)C(C)(C)C(O)(CC4CC(=CC(=O)OCC)CC(C=CC(C)(C)C1(O)O2)O4)O3 (stereo not shown) [SUW217] on UniProt:Q05655 and write it down.
9.4 nM
